Molecular target: proMMP9(67-444;ΔFnII) (SEQ ID NO:5) (Homo sapiens, UniProt P14780, DEL216-390)
Construct: start methionine (N)
Sequence (P14780 with tags, fused parts or gaps DEL216-390): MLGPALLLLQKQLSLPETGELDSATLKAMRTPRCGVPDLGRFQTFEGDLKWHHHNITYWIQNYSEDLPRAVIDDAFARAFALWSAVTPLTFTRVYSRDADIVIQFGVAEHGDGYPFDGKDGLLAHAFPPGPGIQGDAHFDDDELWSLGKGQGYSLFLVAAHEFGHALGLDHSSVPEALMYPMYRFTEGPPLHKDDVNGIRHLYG
Experiment: ThermoFluor binding assay with proMMP9(67-444;ΔFnII)
metric: pKd
Answers are plain numbers, as −log10 of the molar value.

- COc1ccc(S(C)(=O)=O)cc1Nc1nc2c(ccc3[nH]ncc32)s1 [Example 110]: 6.47
- COc1ccc(C#N)cc1Nc1nc2c(ccc3c2cnn3C)s1 [Example 112]: 5.15
- CC(C)Oc1ccc(C(N)=O)cc1Nc1nc2c(ccc3[nH]c(=O)[nH]c32)s1 [Example 23]: 6.01
- COc1ccc(F)cc1Nc1nc2c(ccc3ncn(C)c32)s1 [Example 127]: 6.01
- COc1ccc(S(C)(=O)=O)cc1Nc1nc2c(ccc3c2ncn3C)s1 [Example 52]: 6.22

For each of the items listed, what is its pKd?
1. COc1ccc(S(N)(=O)=O)cc1Nc1nc2c(ccc3ncn(C)c32)s1 [Example 130]
2. CCc1ccccc1Nc1nc2c(ccc3c2ncn3C)s1 [Example 62]
3. COc1ccc(NC(N)=O)cc1Nc1nc2c(ccc3c2ncn3C)s1 [Example 87]
4. Cn1cnc2c(Nc3nc4c(ccc5c4ncn5C)s3)cccc21 [Example 73]

[5.92, 5.80, 5.80, 5.12]

For each of the items listed, what is its pKd?
1. CC(C)Oc1ccc(C(N)=O)cc1Nc1nc2c(ccc3cnccc32)s1 [Example 90]
2. COc1ccc(OC)c(Nc2nc3c(ccc4c3ncn4C)s2)c1 [Example 42]

[5.52, 6.43]
